Target: T1, orthogonal hCD122 receptor (hoRb), hCD122 with H133D and Y134F (human, UniProt P14784 27-550)
T1 sequence: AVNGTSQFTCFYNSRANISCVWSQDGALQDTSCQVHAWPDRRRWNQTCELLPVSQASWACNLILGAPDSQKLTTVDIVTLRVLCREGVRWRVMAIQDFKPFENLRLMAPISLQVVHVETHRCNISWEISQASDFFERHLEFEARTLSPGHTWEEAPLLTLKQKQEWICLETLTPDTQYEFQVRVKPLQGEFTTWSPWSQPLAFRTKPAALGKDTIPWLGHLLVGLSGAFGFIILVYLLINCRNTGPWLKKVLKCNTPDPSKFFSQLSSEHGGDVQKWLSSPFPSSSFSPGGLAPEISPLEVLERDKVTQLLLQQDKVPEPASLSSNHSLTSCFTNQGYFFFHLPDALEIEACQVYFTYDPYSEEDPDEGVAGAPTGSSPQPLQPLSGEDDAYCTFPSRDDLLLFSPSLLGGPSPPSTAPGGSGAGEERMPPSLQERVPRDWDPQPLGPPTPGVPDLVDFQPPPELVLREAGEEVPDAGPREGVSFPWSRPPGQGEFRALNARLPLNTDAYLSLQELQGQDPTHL
Test: cell-based or functional assay
Assign class by 3F8 Ortho Proliferation Signal 1:2: not lower than 30000 cts/min means MET; lower than 30000 cts/min means NOT MET.

Below are worked cases with known answers.
binder="ΔR81, SQVLKA (ligand) APTSSSTKKTQLQLSQLLVLLKAILNGINNYKNPKLTRMLTFKFYMPKKATELKHLQCLEEELKPLEEVLNLAQSKNFHLPRDLISNINVIVLELKGSETTFMCEYADETATIVEFLNRWITFCQSIISTLT" class="NOT MET"
binder="R81I, SQVLKA (ligand) APTSSSTKKTQLQLSQLLVLLKAILNGINNYKNPKLTRMLTFKFYMPKKATELKHLQCLEEELKPLEEVLNLAQSKNFHLIPRDLISNINVIVLELKGSETTFMCEYADETATIVEFLNRWITFCQSIISTLT" class=MET
binder="T3K, SQVLKA (ligand) APKSSSTKKTQLQLSQLLVLLKAILNGINNYKNPKLTRMLTFKFYMPKKATELKHLQCLEEELKPLEEVLNLAQSKNFHLRPRDLISNINVIVLELKGSETTFMCEYADETATIVEFLNRWITFCQSIISTLT" class="NOT MET"
binder="V91R, SQVLKA (ligand) APTSSSTKKTQLQLSQLLVLLKAILNGINNYKNPKLTRMLTFKFYMPKKATELKHLQCLEEELKPLEEVLNLAQSKNFHLRPRDLISNINRIVLELKGSETTFMCEYADETATIVEFLNRWITFCQSIISTLT" class="NOT MET"
binder="T3G, SQVLKA (ligand) APGSSSTKKTQLQLSQLLVLLKAILNGINNYKNPKLTRMLTFKFYMPKKATELKHLQCLEEELKPLEEVLNLAQSKNFHLRPRDLISNINVIVLELKGSETTFMCEYADETATIVEFLNRWITFCQSIISTLT" class=MET

-- ask Please check the record C125A, SQVLKA (ligand) APTSSSTKKTQLQLSQLLVLLKAILNGINNYKNPKLTRMLTFKFYMPKKATELKHLQCLEEELKPLEEVLNLAQSKNFHLRPRDLISNINVIVLELKGSETTFMCEYADETATIVEFLNRWITFAQSIISTLT and state if its 3F8 Ortho Proliferation Signal 1:2 is at or above 30000 cts/min.
-- reply MET

-- ask Please check the record H55Y, SQVLKA (ligand) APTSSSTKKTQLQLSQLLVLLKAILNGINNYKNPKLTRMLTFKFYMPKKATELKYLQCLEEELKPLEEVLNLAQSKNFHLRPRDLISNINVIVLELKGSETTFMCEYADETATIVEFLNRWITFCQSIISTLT and state if its 3F8 Ortho Proliferation Signal 1:2 is at or above 30000 cts/min.
-- reply NOT MET
